Value source: PubChem BioAssay (Tox21)

assay: qHTS assay to identify small molecule agonists of the RXR signaling pathway - cell viability counter screen (AID 1159529); conditions: RXR-alpha-bla HEK293T viability, CellTiter-Glo, 16 h; series mostly up to 76.8 µM; also: nearly all actives have a fitted effect of over 50% in size
Records with an inconclusive call do not appear. Calls of active or inactive are those of the source. Calls follow the shape of the dose curve; as a rule, active = well fitted cell-killing curve with a large enough effect in the repeat runs; inconclusive = weak or mixed curves, or effect the other way; inactive = no such curve, though single readings can be large or run the other way.
// one of t for active, f for inactive, no free text

Solved entries:
| compound | classification |
| --- | --- |
| Cc1scc2c1N(C(=O)CN1CCN(C)CC1)c1ccccc1NC2=O | f |
| O=C(Oc1ccccc1)c1ccccc1O | f |
| Nc1nc2ccccc2[nH]1 | f |
| CCOC(=O)C(C)C(C)=O (configuration not stated) | f |
| COc1ccc(Cc2cnc(N)nc2N)cc1OC | f |
| c1cc(C(c2ccc(OCC3CO3)cc2)C(c2ccc(OCC3CO3)cc2)c2ccc(OCC3CO3)cc2)ccc1OCC1CO1 (configuration not stated) | f |
| COC(=O)c1cccc(C(=O)OC)c1 | f |
| CC(=O)O[C@]1(C(C)=O)CC[C@H]2[C@@H]3C[C@H](C)C4=CC(=O)CC[C@]4(C)[C@H]3CC[C@@]21C | f |
| Cc1cccc(O)c1C | f |
| Oc1ccc(Cl)cc1Cc1cc(Cl)ccc1O | t |

Request: What classification did `Nc1cc(Cl)c(-c2cc(Cl)c(N)cc2Cl)cc1Cl` end up with in this test?
Result: t

Request: How about this compound: `CCCOC(=O)c1cc(O)c(O)c(O)c1`
Result: f

----------
assay: qHTS assay to identify small molecule antagonists of the estrogen related receptor (ERR) signaling pathway (AID 1224819; also: nearly all actives have a fitted effect of over 50% in size; also: potency is read from the fitted curve at half-maximal effect); details: ERR reporter cell line, luciferase inhibition; series mostly up to 46.1 µM
Inconclusive results are not listed. Calls of active or inactive are those of the source. Calls follow the shape of the dose curve; as a rule, active = well fitted inhibition curve with a large enough effect in the repeat runs; inconclusive = weak or mixed curves; inactive = no such curve, though single readings can be large or run the other way.
attribute_measured: Potency

# count of solved cases: 5
| molecule | Potency |
| --- | --- |
| CCN1CCCC1CNC(=O)c1cc(S(=O)(=O)CC)c(N)cc1OC (stereo unspecified) | inactive |
| c1cnc2cc3c(cc2n1)C1CNCC3C1 | inactive |
| O=C1CC2(CCCC2)CC(=O)N1CCCCN1CCN(c2ncccn2)CC1 | inactive |
| NC(=Nc1ccccc1)Nc1ccccc1 | inactive |
| C1COC(NC(C2CC2)C2CC2)=N1 | inactive |

Then there is this molecule:
Request: # input molecule: `Cc1c(O)cccc1C(=O)N[C@@H](CSc1ccccc1)[C@H](O)CN1C[C@H]2CCCC[C@H]2C[C@H]1C(=O)NC(C)(C)C` ; wanted: its Potency
Result: 19.6 µM (active)

----------
assay: qHTS assay to identify small molecule antagonists of the retinoid-related orphan receptor gamma (ROR-gamma) signaling pathway - cell viability counter screen (AID 1159520); settings: Tet-on RORgamma CHO cells viability, ATP luminescence, 16 h; series mostly up to 92.4 µM; also: nearly all actives have a fitted effect of over 50% in size
Inconclusive results are not listed. Calls of active or inactive are those of the source. Calls follow the shape of the dose curve; as a rule, active = well fitted cell-killing curve with a large enough effect in the repeat runs; inconclusive = weak or mixed curves, or effect the other way; inactive = no such curve, though single readings can be large or run the other way.
// one of active, inactive, no free text

| molecule | classification |
| --- | --- |
| O=Cc1ccc(Cl)cc1 | inactive |
| O=C1CC2(CCCC2)CC(=O)N1CCCCN1CCN(c2ncccn2)CC1 | inactive |
| CC(C(O)c1ccc(O)cc1)N1CCC(Cc2ccccc2)CC1 (stereo not drawn) | inactive |
| O=C1OC2(c3ccc(O)cc3Oc3cc(O)ccc32)c2ccccc21 | inactive |
| C=C(C)C(=O)O | inactive |
| c1ccc2c(c1)-c1cccc3c1c-2cc1ccccc13 | active |
| CNCCC(Oc1ccc(C(F)(F)F)cc1)c1ccccc1 (stereo not drawn) | inactive |
| O=c1n(CC2CO2)c(=O)n(CC2CO2)c(=O)n1CC1CO1 (stereo not drawn) | inactive |

Request: What classification did `COC(c1ccccc1)(c1ccccc1)[C@H](Oc1nc(C)cc(C)n1)C(=O)O` end up with in this test?
Result: inactive

Request: How about this molecule: `c1ccc2cc3c(ccc4ccccc43)cc2c1`
Result: inactive

Request: How about this molecule: `CCCC(=O)c1ccccc1`
Result: inactive

Request: How about this molecule: CC1COC(=O)O1 (stereo not drawn)
Result: inactive

Request: How about this molecule: `O=C(O)c1cccc(C(=O)O)c1`
Result: inactive
